This collection of values is drawn from paper PMC11215778.

assay: Microsomal stability, human liver microsomes; assay type: in vitro ADME; conditions: pooled liver microsomes, pH 7.4; human liver microsomes 0.5 mg/mL, 10 μM compound; read-out: Microsomal stability CLint, hum
Binarize microsomal CLint at 10 µM at 4 µL/min/mg; below is t, at or above is f.

Solved cases below.
Strictly below 4 µL/min/mg: is that where microsomal CLint at 10 µM of COC(=O)[C@@H]1[C@H]2C[C@H]3c4[nH]c5ccccc5c4CCN3C[C@@H]2CC[C@@H]1O [Compound 1, Yohimbine, reference compound] sits? f

Strictly below 4 µL/min/mg: is that where microsomal CLint at 10 µM of `O=C(O[C@@H]1CCNC1)[C@@H]1[C@H]2C[C@H]3c4[nH]c5ccccc5c4CCN3C[C@@H]2CC[C@@H]1O` sits? t

Strictly below 4 µL/min/mg: is that where microsomal CLint at 10 µM of `CN1CC[C@H](OC(=O)[C@@H]2[C@H]3C[C@H]4c5[nH]c6ccccc6c5CCN4C[C@@H]3CC[C@@H]2O)C1` sits? f

Strictly below 4 µL/min/mg: is that where microsomal CLint at 10 µM of `CCOC(=O)[C@@H]1[C@H]2C[C@H]3c4[nH]c5ccccc5c4CCN3C[C@@H]2CC[C@@H]1O` sits? f

Strictly below 4 µL/min/mg: is that where microsomal CLint at 10 µM of `CC(C)OC(=O)[C@@H]1[C@H]2C[C@H]3c4[nH]c5ccccc5c4CCN3C[C@@H]2CC[C@@H]1O` sits? f

Strictly below 4 µL/min/mg: is that where microsomal CLint at 10 µM of `O=C(O[C@H]1CCOC1)[C@@H]1[C@H]2C[C@H]3c4[nH]c5ccccc5c4CCN3C[C@@H]2CC[C@@H]1O` sits? f

Strictly below 4 µL/min/mg: is that where microsomal CLint at 10 µM of `N[C@H]1C[C@H](OC(=O)[C@@H]2[C@H]3C[C@H]4c5[nH]c6ccccc6c5CCN4C[C@@H]3CC[C@@H]2O)C1` sits? t

Strictly below 4 µL/min/mg: is that where microsomal CLint at 10 µM of `O=C(OC1CNC1)[C@@H]1[C@H]2C[C@H]3c4[nH]c5ccccc5c4CCN3C[C@@H]2CC[C@@H]1O` sits? t

Strictly below 4 µL/min/mg: is that where microsomal CLint at 10 µM of `O=C(OC[C@H]1CCNC1)[C@@H]1[C@H]2C[C@H]3c4[nH]c5ccccc5c4CCN3C[C@@H]2CC[C@@H]1O` sits? t

Others:
Strictly below 4 µL/min/mg: is that where microsomal CLint at 10 µM of `N[C@H]1C[C@@H](OC(=O)[C@@H]2[C@H]3C[C@H]4c5[nH]c6ccccc6c5CCN4C[C@@H]3CC[C@@H]2O)C1` sits? t

----------
system: P-gp (human MDR1); assay: in vitro; details: dog, MDCK-MDR1
PROPERTY_MEASURED: Papp B→A at 2 h, 10 µM (×10⁻⁶ cm/s)
Value expressed in ×10⁻⁶ cm/s; do not type the unit.

// sample N[C@H]1C[C@H](OC(=O)[C@@H]2[C@H]3C[C@H]4c5[nH]c6ccccc6c5CCN4C[C@@H]3CC[C@@H]2O)C1 [Compound 4n] , its Papp B→A at 2 h, 10 µM was 3.5

----------
test: Cytotoxicity assay (CellTiter-Glo) on normal human dermal fibroblasts; type: cell-based; conditions: normal human dermal fibroblasts (NHDF), 1 uM
Recorded viability at 72 h, 1 µM by entry
Remember to follow the number with its unit.

// sample O=C(OC[C@H]1CCN1)[C@@H]1[C@H]2C[C@H]3c4[nH]c5ccccc5c4CCN3C[C@@H]2CC[C@@H]1O [Compound 4g] , its viability at 72 h, 1 µM was 120%

// sample O=C(OC1CNC1)[C@@H]1[C@H]2C[C@H]3c4[nH]c5ccccc5c4CCN3C[C@@H]2CC[C@@H]1O [Compound 4m] , its viability at 72 h, 1 µM was 77%

// sample O=C(O[C@@H]1CCNC1)[C@@H]1[C@H]2C[C@H]3c4[nH]c5ccccc5c4CCN3C[C@@H]2CC[C@@H]1O [Compound 4k] , its viability at 72 h, 1 µM was 99%

// sample CC(C)(C)OC(=O)[C@@H]1[C@H]2C[C@H]3c4[nH]c5ccccc5c4CCN3C[C@@H]2CC[C@@H]1O [Compound 3e] , its viability at 72 h, 1 µM was 123%

// sample N[C@H]1C[C@H](OC(=O)[C@@H]2[C@H]3C[C@H]4c5[nH]c6ccccc6c5CCN4C[C@@H]3CC[C@@H]2O)C1 [Compound 4n] , its viability at 72 h, 1 µM was 93%

// sample CCOC(=O)[C@@H]1[C@H]2C[C@H]3c4[nH]c5ccccc5c4CCN3C[C@@H]2CC[C@@H]1O [Compound 3a] , its viability at 72 h, 1 µM was 111%

Others:
// sample O=C(OC1CCCNC1)[C@@H]1[C@H]2C[C@H]3c4[nH]c5ccccc5c4CCN3C[C@@H]2CC[C@@H]1O (stereo partly drawn) [Compound 4e] , its viability at 72 h, 1 µM was 84%

// sample O=C(OC[C@H]1CCNC1)[C@@H]1[C@H]2C[C@H]3c4[nH]c5ccccc5c4CCN3C[C@@H]2CC[C@@H]1O [Compound 4j] , its viability at 72 h, 1 µM was 104%

// sample O=C(O[C@H]1CCNC1)[C@@H]1[C@H]2C[C@H]3c4[nH]c5ccccc5c4CCN3C[C@@H]2CC[C@@H]1O [Compound 4l] , its viability at 72 h, 1 µM was 100%

// sample O=C(OC1CCNCC1)[C@@H]1[C@H]2C[C@H]3c4[nH]c5ccccc5c4CCN3C[C@@H]2CC[C@@H]1O [Compound 4d] , its viability at 72 h, 1 µM was 107%

// sample O=C(N[C@H]1CCNC1)[C@@H]1[C@H]2C[C@H]3c4[nH]c5ccccc5c4CCN3C[C@@H]2CC[C@@H]1O [Compound 5a] , its viability at 72 h, 1 µM was 90%

// sample O=C(OC[C@H]1CCCN1)[C@@H]1[C@H]2C[C@H]3c4[nH]c5ccccc5c4CCN3C[C@@H]2CC[C@@H]1O [Compound 4a] , its viability at 72 h, 1 µM was 113%

// sample O=C(OC[C@@H]1CCCN1)[C@@H]1[C@H]2C[C@H]3c4[nH]c5ccccc5c4CCN3C[C@@H]2CC[C@@H]1O [Compound 4b] , its viability at 72 h, 1 µM was 112%

// sample O=C(NC1CNC1)[C@@H]1[C@H]2C[C@H]3c4[nH]c5ccccc5c4CCN3C[C@@H]2CC[C@@H]1O [Compound 5b] , its viability at 72 h, 1 µM was 88%

// sample CC(C)OC(=O)[C@@H]1[C@H]2C[C@H]3c4[nH]c5ccccc5c4CCN3C[C@@H]2CC[C@@H]1O [Compound 3b] , its viability at 72 h, 1 µM was 108%

// sample N[C@H]1C[C@@H](OC(=O)[C@@H]2[C@H]3C[C@H]4c5[nH]c6ccccc6c5CCN4C[C@@H]3CC[C@@H]2O)C1 [Compound 4o] , its viability at 72 h, 1 µM was 84%

// sample O=C(OC[C@@H]1CCN1)[C@@H]1[C@H]2C[C@H]3c4[nH]c5ccccc5c4CCN3C[C@@H]2CC[C@@H]1O [Compound 4h] , its viability at 72 h, 1 µM was 116%

// sample O=C(OCC1CNC1)[C@@H]1[C@H]2C[C@H]3c4[nH]c5ccccc5c4CCN3C[C@@H]2CC[C@@H]1O [Compound 4f] , its viability at 72 h, 1 µM was 119%

// sample O=C(OC1CCCC1)[C@@H]1[C@H]2C[C@H]3c4[nH]c5ccccc5c4CCN3C[C@@H]2CC[C@@H]1O [Compound 3d] , its viability at 72 h, 1 µM was 113%

// sample CC(C)CCOC(=O)[C@@H]1[C@H]2C[C@H]3c4[nH]c5ccccc5c4CCN3C[C@@H]2CC[C@@H]1O [Compound 3c] , its viability at 72 h, 1 µM was 117%

// sample COC(=O)[C@@H]1[C@H]2C[C@H]3c4[nH]c5ccccc5c4CCN3C[C@@H]2CC[C@@H]1O [Compound 1, Yohimbine, reference compound] , its viability at 72 h, 1 µM was 112%

// sample CN1CC[C@H](OC(=O)[C@@H]2[C@H]3C[C@H]4c5[nH]c6ccccc6c5CCN4C[C@@H]3CC[C@@H]2O)C1 [Compound 4p] , its viability at 72 h, 1 µM was 88%

// sample CNCCOC(=O)[C@@H]1[C@H]2C[C@H]3c4[nH]c5ccccc5c4CCN3C[C@@H]2CC[C@@H]1O [Compound 4c] , its viability at 72 h, 1 µM was 104%

// sample O=C(OC[C@@H]1CCNC1)[C@@H]1[C@H]2C[C@H]3c4[nH]c5ccccc5c4CCN3C[C@@H]2CC[C@@H]1O [Compound 4i] , its viability at 72 h, 1 µM was 109%
